From: paper PMC2756588

Biological target: Myo3, P36006
Experiment: SPOT array
Details: median of control spots 468
Assay endpoint: SPOT intensity

// worked examples, SPOT intensity included
| Binder | SPOT intensity |
| --- | --- |
| KDKSRPPRPPPKPLH | 104 |
| NAGIRPKFILALNDE | 0 |

[I] RRRIAYPFYPFKKLG
[II] TSFKGRPKPPKTLKH
[III] RKLRTVPGVPLIHLT
Task: Order each entry by recorded SPOT intensity, climbing from the minimum. I would appreciate it if you listed the labels in the requested order.
Result: II, I, III
(II: 0, I: 2, III: 8)
